- TEST METHOD NOTES: Prodrug conversion in acetate buffer assessed as half-life for hydrolysis at pH 3
- Format: physicochemical
OBSERVED PROPERTY: t1/2 (h)

Past entries and their recorded results:
COMPOUND	DISPLAY UNIT	REPORTED VALUE
COc1ccc2cc(C(C)C(=O)OCC(OC(C)=O)C(OC(C)=O)C(OC(C)=O)C(/C=N/CC(=O)O)OC(C)=O)ccc2c1 (stereo unspecified)	h	115
COc1ccc2cc(C(C)C(=O)OCC(OC(C)=O)C(OC(C)=O)C(OC(C)=O)C(/C=N/[C@@H](Cc3ccc(O)cc3)C(=O)O)OC(C)=O)ccc2c1 (stereo partly specified)	h	22
COc1ccc2cc(C(C)C(=O)OCC(OC(C)=O)C(OC(C)=O)C(OC(C)=O)C(/C=N/[C@@H](CS)C(=O)O)OC(C)=O)ccc2c1 (stereo partly specified)	h	44

A. COc1ccc2cc(C(C)C(=O)OCC(OC(C)=O)C(OC(C)=O)C(OC(C)=O)C(/C=N/[C@H](C(=O)O)C(C)C)OC(C)=O)ccc2c1 (stereo partly specified)
B. COc1ccc2cc(C(C)C(=O)OCC(OC(C)=O)C(OC(C)=O)C(OC(C)=O)C(/C=N/[C@@H](C)C(=O)O)OC(C)=O)ccc2c1 (stereo partly specified)
In: Compare reported t1/2 values for A and B . Which is lower? Please reply using the label of the selected record.
Out: B

----------
- TEST METHOD NOTES: Prodrug conversion in phosphate buffer assessed as half-life for hydrolysis at pH 7.4
- Type: physicochemical
OBSERVED PROPERTY: t1/2 (h)

COMPOUND	DISPLAY UNIT	t1/2
COc1ccc2cc(C(C)C(=O)OCC(OC(C)=O)C(OC(C)=O)C(OC(C)=O)C(/C=N/CC(=O)O)OC(C)=O)ccc2c1 (centres undefined)	h	25
COc1ccc2cc(C(C)C(=O)OCC(OC(C)=O)C(OC(C)=O)C(OC(C)=O)C(/C=N/[C@@H](Cc3c[nH]c4ccccc34)C(=O)O)OC(C)=O)ccc2c1 (some centres undefined)	h	18
COc1ccc2cc(C(C)C(=O)OCC(OC(C)=O)C(OC(C)=O)C(OC(C)=O)C(/C=N/[C@@H](Cc3ccc(O)cc3)C(=O)O)OC(C)=O)ccc2c1 (some centres undefined)	h	18
COc1ccc2cc(C(C)C(=O)OCC(OC(C)=O)C(OC(C)=O)C(OC(C)=O)C(/C=N/[C@@H](C)C(=O)O)OC(C)=O)ccc2c1 (some centres undefined)	h	22
